System: LOC_OS01G60700-cb002
assay_procedure: thermal shift delta Tm vs DMSO control; higher = stronger stabilization (binding);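 further: purified Escherichia coli-expressed rice kinase domain construct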
condition_info: 12.5 µM; protein concentration 2 µM
quantity_name: thermal shift delta Tm (°C)
Quick note: give the figure in °C, leave out the unit.

Worked examples follow.
{"molecule": "CCCCNc1ncc2c(-c3ccc(CN4CCN(C)CC4)cc3)cn([C@H]3CC[C@H](O)CC3)c2n1", "value_units": "°C", "thermal shift delta Tm": 0.56}
{"molecule": "COc1ccc(Cl)c(Nc2nc3ccccc3nc2NS(=O)(=O)c2cccc(NC(=O)C(C)(C)N)c2)c1 [Pilaralisib (XL147)]", "value_units": "°C", "thermal shift delta Tm": 0.4}
{"molecule": "C[S+]([O-])c1ccc(-c2nc(-c3ccc(F)cc3)c(-c3ccncc3)[nH]2)cc1 (stereo unspecified)", "value_units": "°C", "thermal shift delta Tm": 1.91}
{"molecule": "Nc1nc(Nc2ccc(S(N)(=O)=O)cc2)nn1C(=O)c1c(F)cccc1F", "value_units": "°C", "thermal shift delta Tm": 0.65}
{"molecule": "O=C(NCc1cccc(O)c1)Nc1nc(-c2ccncc2)cs1", "value_units": "°C", "thermal shift delta Tm": 1.38}

Okay, next one:
### Prompt Which thermal shift delta Tm reading was recorded for the molecule `CN1C(=O)[C@@H](NC(=O)c2n[nH]c(Cc3ccccc3)n2)COc2ccccc21` ?
### Response 0.2

====

System: LOC_OS05G43570-cb004
assay_procedure: thermal shift delta Tm vs DMSO control; higher = stronger stabilization (binding)
condition_info: 12.5 µM; protein concentration 2 µM
thermal shift delta Tm values for the compounds below.
Quick note: give the figure in °C, leave out the unit.

Worked examples follow.
{"compound": "COc1cc(Nc2c(C#N)cnc3cc(OCCCN4CCN(C)CC4)c(OC)cc23)c(Cl)cc1Cl [Bosutinib (SKI-606)]", "test_system": "LOC_OS05G43570-cb004", "quantity_name": "thermal shift delta Tm", "result_value": 0.48}
{"compound": "Cc1ncc(-c2ccnc(Nc3ccc(S(C)(=O)=O)cc3)n2)n1C(C)C", "test_system": "LOC_OS05G43570-cb004", "quantity_name": "thermal shift delta Tm", "result_value": 0.74}
{"compound": "COc1ccc(Cl)c(Nc2nc3ccccc3nc2NS(=O)(=O)c2cccc(NC(=O)C(C)(C)N)c2)c1", "test_system": "LOC_OS05G43570-cb004", "quantity_name": "thermal shift delta Tm", "result_value": 1.75}

Okay, next one:
### Prompt Which thermal shift delta Tm reading was recorded for the compound `Oc1cccc(-c2nc(N3CCOCC3)c3oc4ncccc4c3n2)c1` ?
### Response 0.69

====

thermal shift delta Tm values for the molecules below.
Tested on: LOC_OS03G27990-cb004
assay_procedure: thermal shift delta Tm vs DMSO control; higher = stronger stabilization (binding)
condition_info: 12.5 µM; protein concentration 2 µM
Quick note: give the figure in °C, leave out the unit.

Worked examples follow.
{"molecule": "N#CCNC(=O)c1ccc(-c2ccnc(Nc3ccc(N4CCOCC4)cc3)n2)cc1 [Momelotinib (CYT387)]", "test_system": "LOC_OS03G27990-cb004", "value_units": "°C", "result_value": 0.29}
{"molecule": "Cc1ccc2nc(NCCN)c3ncc(C)n3c2c1", "test_system": "LOC_OS03G27990-cb004", "value_units": "°C", "result_value": 0.55}
{"molecule": "Cc1cc([C@@H](C)Nc2ccccc2C(=O)O)c2nc(N3CCOCC3)cc(=O)n2c1", "test_system": "LOC_OS03G27990-cb004", "value_units": "°C", "result_value": 0.29}
{"molecule": "CCOc1ccn(-c2ccc(F)cc2)c(=O)c1C(=O)Nc1ccc(Oc2ccnc(N)c2Cl)c(F)c1", "test_system": "LOC_OS03G27990-cb004", "value_units": "°C", "result_value": 0.05}

Okay, next one:
### Prompt What measured thermal shift delta Tm is associated with `COc1cc(C(=O)N2CCC(N3CCN(C)CC3)CC2)ccc1Nc1ncc2c(n1)N(C)c1ccccc1C(=O)N2C` on LOC_OS03G27990-cb004?
### Response 0.46

====

Tested on: LOC_OS05G43570-cb004
assay_procedure: thermal shift delta Tm vs DMSO control; higher = stronger stabilization (binding)
condition_info: 12.5 µM; protein concentration 2 µM
quantity_name: thermal shift delta Tm (°C)
Quick note: give the figure in °C, leave out the unit.

{"compound": "COc1ccc2c(c1)[C@]1(C[C@H]1c1ccc3c(/C=C/c4ccc(CN5C[C@@H](C)O[C@@H](C)C5)cc4)n[nH]c3c1)C(=O)N2", "test_system": "LOC_OS05G43570-cb004", "thermal shift delta Tm, °C": 0.5}
{"compound": "CCCS(=O)(=O)Nc1ccc(F)c(C(=O)c2c[nH]c3ncc(Cl)cc23)c1F", "test_system": "LOC_OS05G43570-cb004", "thermal shift delta Tm, °C": 0.29}
{"compound": "COc1cc(N2CCC(N3CCN(C)CC3)CC2)ccc1Nc1ncnc(Nc2ccccc2S(=O)(=O)C(C)C)n1", "test_system": "LOC_OS05G43570-cb004", "thermal shift delta Tm, °C": 0.45}

### Prompt What measured thermal shift delta Tm is associated with CCCCNc1ncc(C(=O)NCc2ccc(-n3ccnc3)cc2)c(NC2CCC(O)CC2)n1 (stereo not given) on LOC_OS05G43570-cb004?
### Response 0.57

### Prompt What measured thermal shift delta Tm is associated with OC1CCC(Nc2ncc3nc(Nc4c(F)cc(F)cc4F)n([C@H]4CCOC4)c3n2)CC1 (stereo not given in full) on LOC_OS05G43570-cb004?
### Response 0.42

====

Test system: LOC_OS01G10900-cb004
assay_procedure: thermal shift delta Tm vs DMSO control; higher = stronger stabilization (binding)
condition_info: 12.5 µM; protein concentration 2 µM
quantity_name: thermal shift delta Tm (°C)
Quick note: give the figure in °C, leave out the unit.

Worked examples follow.
{"smiles_entry": "O=C(c1ccc(/C=C/c2n[nH]c3ccccc23)cc1)N1CCNCC1", "quantity_name": "thermal shift delta Tm", "result_value": 1.43}
{"smiles_entry": "Cc1cnc(Nc2ccc(N3CCN(C)CC3)cc2)nc1Nc1cccc(S(=O)(=O)NC(C)(C)C)c1", "quantity_name": "thermal shift delta Tm", "result_value": 0.71}

Okay, next one:
### Prompt Which thermal shift delta Tm reading was recorded for the compound `Nc1nc(N)c2nc(-c3cccc(O)c3)c(-c3cccc(O)c3)nc2n1` ?
### Response 1.95

====

Tested on: LOC_OS05G16824-cb004
assay_procedure: thermal shift delta Tm vs DMSO control; higher = stronger stabilization (binding)
condition_info: 12.5 µM; protein concentration 2 µM
quantity_name: thermal shift delta Tm (°C)
Quick note: give the figure in °C, leave out the unit.

Worked examples follow.
{"compound": "CCn1c(-c2nonc2N)nc2c(C#CC(C)(C)O)ncc(OC[C@H]3CCCNC3)c21", "test_system": "LOC_OS05G16824-cb004", "thermal shift delta Tm [°C]": -1.28}
{"compound": "COc1ccc(-c2nc(N3CCOCC3)c3sc(CN(C)c4ncc(C(=O)NO)cn4)cc3n2)cn1", "test_system": "LOC_OS05G16824-cb004", "thermal shift delta Tm [°C]": -1.81}
{"compound": "C=C[C@@](C)(/C=C/c1ccc(O)cc1)CCC=C(C)C [Bakuchiol]", "test_system": "LOC_OS05G16824-cb004", "thermal shift delta Tm [°C]": -1.27}

### Prompt What measured thermal shift delta Tm is associated with `COc1ccc(-c2ccc3ncc4c(c3c2)n(-c2ccc(N3CCNCC3)c(C(F)(F)F)c2)c(=O)n4C)cn1` on LOC_OS05G16824-cb004?
### Response 2.52

### Prompt What measured thermal shift delta Tm is associated with `C[C@H](NC(=O)/C(C#N)=C/c1cccc(Br)n1)c1ccccc1` on LOC_OS05G16824-cb004?
### Response -17.3

### Prompt What measured thermal shift delta Tm is associated with c1cc(-c2cnn3cc(-c4ccc(OCCN5CCCCC5)cc4)cnc23)ccn1 [Dorsomorphin 2HCl] on LOC_OS05G16824-cb004?
### Response 12.6

### Prompt What measured thermal shift delta Tm is associated with C#Cc1cccc(Nc2ncnc3cc4c(cc23)OCCOCCOCCO4)c1 [Icotinib] on LOC_OS05G16824-cb004?
### Response -0.7

### Prompt What measured thermal shift delta Tm is associated with COc1cc2nccc(Oc3ccc(NC(=O)C4(C(=O)Nc5ccc(F)cc5)CC4)cc3)c2cc1OC [Cabozantinib malate (XL184)] on LOC_OS05G16824-cb004?
### Response -1.18

====

Tested on: LOC_OS04G41100-cb001
Sequence (as listed by the source): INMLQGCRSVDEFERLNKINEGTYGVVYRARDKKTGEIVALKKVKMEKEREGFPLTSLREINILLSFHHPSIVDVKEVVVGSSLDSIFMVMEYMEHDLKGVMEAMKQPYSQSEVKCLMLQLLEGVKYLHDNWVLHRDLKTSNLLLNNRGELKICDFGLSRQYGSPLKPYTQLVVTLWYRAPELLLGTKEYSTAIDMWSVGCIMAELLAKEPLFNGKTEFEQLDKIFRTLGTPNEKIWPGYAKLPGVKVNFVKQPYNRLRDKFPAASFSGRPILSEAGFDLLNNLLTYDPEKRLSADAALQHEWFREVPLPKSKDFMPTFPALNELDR
assay_procedure: thermal shift delta Tm vs DMSO control; higher = stronger stabilization (binding)
condition_info: 12.5 µM; protein concentration 2 µM
Could you label it Met if measured thermal shift delta Tm is 0.7 °C or higher, and Not met otherwise?

Illustrative cases are given below, each with its answer.
{"molecule": "C[C@H](CN(C)C)Oc1nc(Nc2cc3cccc(Cl)c3cn2)cnc1C#N", "group_label": "Not met"}
{"molecule": "CN(C)S(=O)(=O)c1ccc2c(c1)/C(=C/c1cc3c([nH]1)CCCC3)C(=O)N2", "group_label": "Not met"}
{"molecule": "CNC(=O)c1cc(Oc2ccc(NC(=O)Nc3ccc(Cl)c(C(F)(F)F)c3)cc2)ccn1 [Sorafenib]", "group_label": "Met"}
{"molecule": "CC(=O)Nc1cccc(-n2c(=O)n(C3CC3)c(=O)c3c(Nc4ccc(I)cc4F)n(C)c(=O)c(C)c32)c1", "group_label": "Not met"}
{"molecule": "C=CC(=O)Nc1cc(Nc2nccc(-c3cn(C)c4ccccc34)n2)c(OC)cc1N(C)CCN(C)C [Osimertinib (AZD9291)]", "group_label": "Not met"}

### Prompt Check the entry `Cc1ccc(CNc2ncnc3ccc(-c4ccc(CO)o4)cc23)o1` : does thermal shift delta Tm equal or exceed 0.7 °C?
### Response Met

### Prompt Check the entry `CCNc1nc(Nc2cc(F)c(C(=O)N3CCOCC3)cc2OC)ncc1C(F)(F)F` : does thermal shift delta Tm equal or exceed 0.7 °C?
### Response Not met

### Prompt Check the entry `CN1CCC(Nc2nc(Nc3ccc(Oc4ccccc4)cc3)c3c(=O)[nH]cc(Br)c3n2)CC1` : does thermal shift delta Tm equal or exceed 0.7 °C?
### Response Met

### Prompt Check the entry `Cc1ccc([N+](=O)[O-])cc1S(=O)(=O)N(C)/N=C/c1cnc2ccc(Br)cn12` : does thermal shift delta Tm equal or exceed 0.7 °C?
### Response Met

### Prompt Check the entry `C=CC(=O)Nc1ccc2ncnc(Nc3ccc(OCc4cccc(F)c4)c(Cl)c3)c2c1` : does thermal shift delta Tm equal or exceed 0.7 °C?
### Response Met

### Prompt Check the entry COc1cc(Nc2ncc(F)c(Nc3ccc4c(n3)N(COP(=O)(O)O)C(=O)C(C)(C)O4)n2)cc(OC)c1OC [R788 (Fostamatinib) Disodium] : does thermal shift delta Tm equal or exceed 0.7 °C?
### Response Not met

### Prompt Check the entry `COc1c(C)c(C(=O)c2ccc(N)c(C(=O)O)c2)n2ccccc12` : does thermal shift delta Tm equal or exceed 0.7 °C?
### Response Not met

### Prompt Check the entry CC(C)c1c2cc(-c3ccnc(NC4CCC(NC5CCOCC5)CC4)n3)ccc2nn1C (centres undefined) : does thermal shift delta Tm equal or exceed 0.7 °C?
### Response Met

### Prompt Check the entry `C=CC(=O)Nc1cccc(Nc2nc(Nc3ccc(Oc4ccnc(C(=O)NC)c4)cc3)ncc2F)c1` : does thermal shift delta Tm equal or exceed 0.7 °C?
### Response Met

### Prompt Check the entry `CNC(=O)Nc1ccc(-c2nc(N3CC4CCC(C3)O4)c3cnn(C4CCC5(CC4)OCCO5)c3n2)cc1` : does thermal shift delta Tm equal or exceed 0.7 °C?
### Response Not met

### Prompt Check the entry Cc1ccc(NC(=O)c2ccc(CN3CCN(C)CC3)cc2)cc1Nc1nc(-c2cccnc2)cs1 [Masitinib (AB1010)] : does thermal shift delta Tm equal or exceed 0.7 °C?
### Response Not met

### Prompt Check the entry CC1(C)CNc2cc(NC(=O)c3cccnc3NCc3ccncc3)ccc21 [Motesanib Diphosphate (AMG-706)] : does thermal shift delta Tm equal or exceed 0.7 °C?
### Response Not met

### Prompt Check the entry Cc1cc(Nc2cc(N3CCN(C)CC3)nc(Sc3ccc(NC(=O)C4CC4)cc3)n2)n[nH]1 [Tozasertib (VX-680, MK-0457)] : does thermal shift delta Tm equal or exceed 0.7 °C?
### Response Met

### Prompt Check the entry `Cc1c(Cn2c(C)nc3c(C(=O)O)cc(N4CCOCC4)cc32)cccc1C(F)(F)F` : does thermal shift delta Tm equal or exceed 0.7 °C?
### Response Not met

Reference for the values: the supplement of paper PMC9694430
